Can you tell me MEAN CORPUSCULAR HEMOGLOBIN for the items I'm about to list?
organism: Rattus norvegicus; test: DrugMatrix - Regimen: Daily Repeat; format: toxicity, organism-based, Sprague-Dawley; parameters: regimen Daily Repeat, gender Male, age 6-8 weeks; conditions: in vivo, po, 2000 mg/kg, 72 h, tissue Blood, route oral GAVAGE, dose level High, time 3 day, vehicle .5 % CMC
Answer as a quantity: numeral, then unit.

GET /value?item= O=C1Nc2ccc(Cl)cc2C(c2ccccc2Cl)=NC1O (stereo unspecified) &field=MEAN CORPUSCULAR HEMOGLOBIN returns 24.63 pg

MEAN CORPUSCULAR HEMOGLOBIN reported for this molecule CN(C/C=C/C#CC(C)(C)C)Cc1cccc2ccccc12 : 21.9 pg

response.value for CN/C(=N/CCSCc1nc[nH]c1C)NC#N (field: MEAN CORPUSCULAR HEMOGLOBIN) = 24.5 pg

get_value(item= COc1cc2nc(N3CCN(C(=O)c4ccco4)CC3)nc(N)c2cc1OC , readout=MEAN CORPUSCULAR HEMOGLOBIN) returns 25.1 pg

Short answer for NC1CCN(c2nc3c(cc2F)c(=O)c(C(=O)O)cn3-c2ccc(F)cc2F)C1 (stereo unspecified) : MEAN CORPUSCULAR HEMOGLOBIN was 22.05 pg

// MEAN CORPUSCULAR HEMOGLOBIN lookup, molecule = CC1(C)S[C@@H]2[C@H](NC(=O)[C@H](N)c3ccccc3)C(=O)N2[C@H]1C(=O)O , result: 24.53 pg
